// data source = PubChem BioAssay (NCI)

system: SNB-75 CNS; test: NCI tumour cell line growth inhibition, 48 h
List of TGI values.
ATTRIBUTE MEASURED: TGI (µM)

* COc1ccccc1[As]=[As]c1ccccc1OC (stereo not given) | 0.13
* N#CC(C#N)=c1c2ccccc2c(=C(C#N)C#N)c2ccccc12 | 39.8
* O=C(CSCC(=O)N/N=C\c1ccc(O)c(O)c1O)N/N=C\c1ccc(O)c(O)c1O | 21.2
* CCCCCCCCCCNCCSS(=O)(=O)O | 4.22
* CCOC(=O)OC1C(Br)C2CCC1(C)C2(C)C (stereo not given) | 24.6
* CCc1cc2c(O)c(c1)Cc1cc(CC)cc(c1O)Cc1cc(CC)cc(c1O)Cc1cc(CC)cc(c1O)Cc1cc(CC)cc(c1O)Cc1cc(CC)cc(c1O)Cc1cc(CC)cc(c1O)C2 | 61.4
* COc1ccccc1/C=C\C(=O)C1COCN1 (stereo not given) | 41.3
* CCN(CC)CCN1c2nc3ccccc3cc2Sc2cc3ccccc3nc21 | 6.22
* CS(=O)(=O)c1cccc(Nc2ncc3cc(-c4ccccc4Cl)ccc3n2)c1 | 2.3
